# TARGET_OF_ASSAY: HDAC6 enzyme (Homo sapiens)
# Construct: transducing full length HDAC1 and HDAC6 genes into Sf-9 insect cells; GST; purchased SignalChem; host or cells: Sf-9 insect cells
# Sequence (Q9UBN7 whole entry): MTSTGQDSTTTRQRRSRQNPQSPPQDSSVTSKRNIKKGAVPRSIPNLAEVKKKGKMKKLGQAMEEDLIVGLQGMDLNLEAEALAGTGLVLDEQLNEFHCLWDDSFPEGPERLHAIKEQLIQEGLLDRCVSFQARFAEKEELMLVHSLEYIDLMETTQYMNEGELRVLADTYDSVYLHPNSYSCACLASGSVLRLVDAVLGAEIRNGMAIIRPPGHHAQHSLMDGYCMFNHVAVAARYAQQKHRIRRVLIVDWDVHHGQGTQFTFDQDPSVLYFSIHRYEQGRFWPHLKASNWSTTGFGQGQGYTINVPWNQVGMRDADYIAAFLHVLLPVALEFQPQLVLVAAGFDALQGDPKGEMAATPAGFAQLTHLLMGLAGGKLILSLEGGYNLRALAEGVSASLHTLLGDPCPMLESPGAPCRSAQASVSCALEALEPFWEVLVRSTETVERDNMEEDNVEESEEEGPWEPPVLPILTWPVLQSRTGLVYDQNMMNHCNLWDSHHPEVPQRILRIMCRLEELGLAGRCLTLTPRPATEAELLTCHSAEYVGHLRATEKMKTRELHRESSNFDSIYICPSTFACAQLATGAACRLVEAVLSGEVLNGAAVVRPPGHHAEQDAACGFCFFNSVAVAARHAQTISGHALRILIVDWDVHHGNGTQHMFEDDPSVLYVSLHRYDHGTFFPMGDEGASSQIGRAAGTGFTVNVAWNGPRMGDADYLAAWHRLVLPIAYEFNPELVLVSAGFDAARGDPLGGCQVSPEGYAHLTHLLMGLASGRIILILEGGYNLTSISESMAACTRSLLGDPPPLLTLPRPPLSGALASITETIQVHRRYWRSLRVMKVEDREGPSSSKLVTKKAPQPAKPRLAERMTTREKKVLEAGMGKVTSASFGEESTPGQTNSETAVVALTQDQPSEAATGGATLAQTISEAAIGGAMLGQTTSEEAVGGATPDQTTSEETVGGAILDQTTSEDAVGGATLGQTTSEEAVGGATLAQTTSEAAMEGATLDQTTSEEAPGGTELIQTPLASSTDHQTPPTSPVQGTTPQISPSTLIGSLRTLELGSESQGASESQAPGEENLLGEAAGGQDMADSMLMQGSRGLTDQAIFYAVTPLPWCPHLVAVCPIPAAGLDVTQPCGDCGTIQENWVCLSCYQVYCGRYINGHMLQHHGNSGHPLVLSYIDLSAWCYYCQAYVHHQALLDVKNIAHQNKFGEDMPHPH
# ASSAY_SUMMARY: HDAC1/6 Enzyme Inhibitory Assay (HDAC-Glo I/II Assay kit), HDAC6
# Type: biochemical
# CONDITION: 1 μM test compound; wells without enzyme = 100% inhibition; read-out: HDAC6 inhibitory rate (%) (1 μM)
# Protocol: HDAC1/6 Enzyme Inhibitory Assay HDAC1 enzyme and HDAC6 enzyme each prepared by transducing full length HDAC1 and HDAC6 genes into Sf-9 insect cells and purifying by GST affinity column were purchased from SignalChem. Using these enzymes, HDAC1 and/or HDAC6 enzyme inhibitory activities of the compound of the present invention were evaluated. […] After reacting at room temperature for 20 min, luminescence level was measured using plate reader Envision (PerkinElmer). […]
MEASUREMENT_TYPE: inhibition at 1 µM (%)
Give the number; % is assumed, so skip it.

O=C1CCCN1[C@@H]1CCCC[C@H]1N1Cc2ccc(-c3noc(C(F)(F)F)n3)cc2C1=O (relative stereo) [Example 18]
99
CCNC(=O)N1CC[C@@H](N2Cc3ccc(-c4noc(C(F)(F)F)n4)cc3C2=O)[C@H](c2ccccc2)C1 [Example 44]
98
O=C(N[C@@H]1CCCC[C@H]1N1Cc2ccc(-c3noc(C(F)(F)F)n3)cc2C1=O)N1CCCC1 [Example 158]
99

Let us examine a further case.
Return value of inhibition at 1 µM for input CN(C)C(=O)c1ccccc1N1Cc2ccc(-c3noc(C(F)(F)F)n3)cc2C1=O [Example 188] , no commentary. 95

----------
// inhibition at 1 µM lookup, one value per entry
# TARGET_OF_ASSAY: HDAC6 enzyme (Homo sapiens)
# Construct: transducing full length HDAC1 and HDAC6 genes into Sf-9 insect cells; GST; purchased SignalChem; host or cells: Sf-9 insect cells
# ASSAY_SUMMARY: HDAC1/6 Enzyme Inhibitory Assay (HDAC-Glo I/II Assay kit), HDAC6
# Assay type: biochemical
# CONDITION: 1 μM test compound; wells without enzyme = 100% inhibition; read-out: HDAC6 inhibitory rate (%) (1 μM)
# Method: HDAC1/6 Enzyme Inhibitory Assay HDAC1 enzyme and HDAC6 enzyme each prepared by transducing full length HDAC1 and HDAC6 genes into Sf-9 insect cells and purifying by GST affinity column were purchased from SignalChem. Using these enzymes, HDAC1 and/or HDAC6 enzyme inhibitory activities of the compound of the present invention were evaluated. […] After reacting at room temperature for 20 min, luminescence level was measured using plate reader Envision (PerkinElmer). […]
Give the number; % is assumed, so skip it.

Worked examples follow.
O=C(N[C@@H]1CCCC[C@H]1N1Cc2ccc(-c3noc(C(F)(F)F)n3)cc2C1=O)C1CCC1
99
CN1CC(C)(C(=O)N[C@@H]2CCCC[C@H]2N2Cc3ccc(-c4noc(C(F)(F)F)n4)cc3C2=O)C1
101
O=C(N[C@@H]1CCCC[C@H]1N1Cc2ccc(-c3noc(C(F)(F)F)n3)cc2C1=O)c1ccccc1 (relative stereo)
97

Let us examine a further case.
Return value of inhibition at 1 µM for input Cn1cc(C(=O)N[C@@H]2CCCC[C@H]2N2Cc3ccc(-c4noc(C(F)(F)F)n4)cc3C2=O)cn1 , no commentary. 96

Values from patent US10308643B2
